test target: Cannabinoid receptor 2 (Homo sapiens, UniProt P34972)
Sequence (P34972 whole entry): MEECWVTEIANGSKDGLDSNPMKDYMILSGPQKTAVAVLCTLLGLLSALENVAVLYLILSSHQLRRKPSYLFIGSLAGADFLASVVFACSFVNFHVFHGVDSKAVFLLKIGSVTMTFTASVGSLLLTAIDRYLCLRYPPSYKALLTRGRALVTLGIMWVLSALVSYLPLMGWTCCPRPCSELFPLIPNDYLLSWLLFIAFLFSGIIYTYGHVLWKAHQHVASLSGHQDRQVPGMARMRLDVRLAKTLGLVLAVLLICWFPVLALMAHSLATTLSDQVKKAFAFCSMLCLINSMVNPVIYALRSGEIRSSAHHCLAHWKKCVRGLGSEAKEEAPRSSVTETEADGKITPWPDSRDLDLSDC
experimental protocol: Agonist activity at CB2 receptor (unknown origin) expressed in CHO cells co-expressing G-alpha16 incubated for 24 hrs by fluo-4 AM dye based whole-cell calcium mobilization assay relative to CP55940
Type: functional
recorded metric: Emax
Number plus unit, in that order.

Past entries and their recorded results:
1) CCCCCn1c(C)c(Cl)c(=O)n(CC(=O)NC(C)(C)C)c1=O	65%
2) CCCCn1c(=O)n(CC(=O)NC(C)(C)C)c(=O)c2c(C)cccc21	98%
3) CCCCCn1c(C)cc(=O)n(CC(=O)NC(C)(C)C)c1=O	72%
4) CCCCCn1c(=O)n(CC(=O)NCCCC)c(=O)c2c(Cl)cccc21	30%
5) CCCCCn1c(C)c(I)c(=O)n(CC(=O)NC(C)(C)C)c1=O	78%
6) CCCCCn1c(=O)n(CC(=O)NC2CCCCC2)c(=O)c2c(C)cccc21	56%

Shift focus to the following entry.
Request: Find Emax (Cannabinoid receptor 2 (Homo sapiens, UniProt P34972)) for the entry CCCn1c(=O)n(CC(=O)NC(C)(C)C)c(=O)c2ccccc21
Result: 75%

----------
test target: Cannabinoid receptor 2 (Homo sapiens, UniProt P34972)
experimental protocol: Agonist activity at CB2 receptor (unknown origin) expressed in CHO cells co-expressing G-alpha16 incubated for 24 hrs by fluo-4 AM dye based whole-cell calcium mobilization assay
Assign EC50 to each entry below.

1) CCCCn1c(C)cc(=O)n(CC(=O)NC(C)(C)C)c1=O	> 10000 nM
2) CCCCCn1c(C)c(Cl)c(=O)n(CC(=O)NC(C)(C)C)c1=O	227 nM
3) O=C(NCC1CCOCC1)c1cnc(Nc2ccc(Cl)cc2Cl)nc1C(F)(F)F [GW842166X]	343 nM

Would you be so kind as to report EC50 for each listed record?
1. CCCCCn1c(C)c(-c2ccccc2)c(=O)n(CC(=O)NC(C)(C)C)c1=O
2. CCCCCn1c(=O)n(CC(=O)NCC(C)C)c(=O)c2ccccc21
3. CCCCCn1c(C)c(I)c(=O)n(CC(=O)NC(C)(C)C)c1=O
4. CCCCCCn1c(C)cc(=O)n(CC(=O)NC(C)(C)C)c1=O
5. CCCCCn1c(=O)n(CC(=O)NCCCC)c(=O)c2ccccc21

Result:
1: > 10000 nM; 2: 370 nM; 3: 178 nM; 4: 767 nM; 5: 78.6 nM

----------
test target: Cannabinoid receptor 2 (Homo sapiens, UniProt P34972)
experimental protocol: Agonist activity at CB2 receptor (unknown origin) expressed in CHO cells co-expressing G-alpha16 incubated for 24 hrs by fluo-4 AM dye based whole-cell calcium mobilization assay relative to CP55940
Format: functional
recorded metric: Emax (%)
Numbers only, in %.

Past entries and their recorded results:
1) CCCCCn1c(=O)n(CC(=O)NC(C)(C)C)c(=O)c2c(OC)cccc21	88
2) O=C(NCC1CCOCC1)c1cnc(Nc2ccc(Cl)cc2Cl)nc1C(F)(F)F [GW842166X]	97

Would you be so kind as to report Emax for each listed record?
1. CCCCCn1c(C)c(Br)c(=O)n(CC(=O)NC(C)(C)C)c1=O
2. CCCCn1c(=O)n(CC(=O)NC(C)(C)C)c(=O)c2cccc(C)c21
3. CCCCn1c(=O)n(CC(=O)NC(C)(C)C)c(=O)c2ccccc21

Result:
1. 74
2. 102
3. 101

Would you be so kind as to report Emax for each listed record?
1. C=CCCn1c(=O)n(CC(=O)NC(C)(C)C)c(=O)c2cccc(C)c21
2. CCCCCn1c(=O)n(CC(=O)NC(C)(C)C)c(=O)c2cccc(Cl)c21
3. CCCn1c(=O)n(CC(=O)NC(C)(C)C)c(=O)c2cccc(C)c21

Result:
1. 90
2. 118
3. 121

Would you be so kind as to report Emax for each listed record?
1. CCCCCn1c(=O)n(CC(=O)NCCCC)c(=O)c2ccccc21
2. CCCCCn1c(=O)n(CC(=O)NC(C)(C)C)c(=O)c2ccccc21
3. CCCCCn1c(C)c(C2CC2)c(=O)n(CC(=O)NC(C)(C)C)c1=O

Result:
1. 78
2. 80
3. 71
